- MEASURED_ON: T1, His-tagged PD-L1 ECD protein (ACROBiosystems) (human, UniProt Q9NZQ7 19-238)
- T1 construct: Bought protein; also called PD-L1-His; PD-L1/His; not shown: His tag
- MEASUREMENT_PROTOCOL: SPR, supernatant IgG captured, PD-L1-His analyte
pKd: −log10 of the molar value.

>  <BINDER>
29A8_VH-VL.M1 (antibody, human IgG1, kappa, N297A, V domains shown, human IgG1 effector-less Fc, kappa) VH: DVQLQGSGPGLVKPSQSLSLTCTVTGYSITSDFAWDWIRQFPGNKLEWMGHIRFSGTTSYNPSLKSRISITRDTSKNQFFLQLNSVTSEDTATYYCARSTLITKGFFDYWGQGTTLTVSS VL: DIVMTQSHKFMSTSVGGRVSITCRASQDVSPAVAWYQQKPGQSPKLLIYWASTRHTGVPDRFTGSGSGTDFTLTISSVQTEDLALYYCQQHYSTPWTFGGGTKLEIKR

>  <pKd>
9.54

$$$$
